Across several studies, molecules have been characterized by their pIC50 on UniProt P00374; a selection follows.
Target: UniProt P00374
Sequence (P00374 whole entry): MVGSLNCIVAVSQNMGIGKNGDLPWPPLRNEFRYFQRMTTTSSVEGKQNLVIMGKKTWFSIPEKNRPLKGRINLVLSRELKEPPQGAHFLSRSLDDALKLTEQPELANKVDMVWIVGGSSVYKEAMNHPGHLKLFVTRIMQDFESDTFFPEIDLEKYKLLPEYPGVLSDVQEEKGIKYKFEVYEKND
In simple prose, pIC50 is minus the logarithm base ten of a concentration in moles per litre.

Quick note, pIC50 for CCCc1c(Sc2c(Cl)cccc2Cl)[nH]c2nc(N)nc(N)c12 landed at 5.59

// pIC50 lookup, molecule = CCCCCC1=Nc2c(O)nc(N)nc2OC1 , result: 4.96

pIC50 measured on CCOC(=O)C1=C(C)NC(=S)NC1c1ccccc1 (stereo not drawn) = 6.24

Lookup result for Nc1ccc(S(=O)(=O)Nc2ncccn2)cc1 ; measured pIC50: 6.89

So for Nc1nc(N)c2c(OCC3CCOCC3)cccc2n1 , the logged pIC50 turned out to be 4.55

For reference, reported pIC50 for CCc1nc(N)nc(N)c1C#CCc1cc(OC)cc(-c2cccc3cnccc23)c1 stands at 7.22

Note to self: pIC50 recorded for Cc1sc2nc(N)[nH]c(=O)c2c1Sc1ccc(Cl)cc1 was 5.82

Record NCCCC(NC(=O)c1ccc(SCc2ccc3ncnc(O)c3c2)cc1)C(=O)O (stereo not drawn) . Reported pIC50: 5.42

pIC50 reported for this molecule Nc1nc(N)c2c(n1)OCC(c1ccccc1)=N2 : 3.77

Record Cc1sc2nc(N)[nH]c(=O)c2c1Sc1ccc(F)cc1 , field pIC50: 5.59

// O=C1Nc2ccccc2/C1=C/c1cn(CC(O)Cn2c3ccccc3c(=O)c3ccccc32)c2ccccc12 (racemic) : pIC50 value = 7.00

# molecule NCCCC(NC(=O)c1ccc(NCC2CNc3nc(N)nc(O)c3C2)cc1)C(=O)O (stereo not drawn) ; its pIC50 = 5.70

Data point: COc1ccc(Sc2sc3nc(N)nc(N)c3c2C)cc1 ; pIC50 = 5.85

Entry COc1cc(OC)c(CNc2ccc3nc(N)nc(N)c3c2)c(OC)c1 — recorded pIC50 = 4.60

NS(=O)(=O)c1ccc(N2C(=O)/C(=C/c3ccc(OC(=O)c4ccccc4)cc3)N=C2c2ccccc2)cc1 yielded pIC50 of 6.55

Reported pIC50 of COc1ccc(CNc2ccc3nc(N)nc(N)c3c2)c(OC)c1OC : 4.57
